Reference source: ChEMBL document CHEMBL1201862

- Tested on: KM12
- test: NCI tumour cell line growth inhibition, 48 h
Active and inactive are the calls of the source. No stated cut-off is given here; in the data, active = GI50 up to about 1.1 µM and inactive = higher.
Outcomes: active, inactive

compound: COc1ccc(OC)c(CCc2cc(OC)ccc2OC)c1
class_label: active

compound: O=C(Nc1ccn(CCOC(=O)c2ccccc2)c(=O)n1)c1ccccc1
class_label: inactive

compound: COc1ccc(/C=C2\CCCC(CN(C)C)C2=O)cc1 (stereo not drawn)
class_label: inactive

compound: COc1cc(NP(=O)(Oc2ccccc2)Oc2ccccc2)ccc1Nc1c2ccccc2nc2c1[nH]c1ccccc12
class_label: inactive

compound: CCCCCC(=O)N[C@@H](c1ccccc1)C(O)C(=O)OC1C[C@@]2(O)C(OC(=O)c3ccccc3)C3[C@](C)(C(=O)[C@H](O)C(=C1C)C2(C)C)C(OC1OCC(O)C(O)C1O)C[C@H]1OC[C@@]31OC(C)=O (stereo partly drawn)
class_label: inactive

compound: CN1CCCC2[C@@H]3CCC4c5nonc5CC[C@]4(C)C3CC[C@@]21C (stereo partly drawn)
class_label: inactive

compound: Oc1c(O)c(Cc2ccccc2)c(Cc2ccccc2)c(Cc2ccccc2)c1Cc1ccccc1
class_label: inactive

compound: NCCC1([N+](=O)[O-])C=CN=CC1 (stereo not drawn)
class_label: inactive

* * *

- Tested on: MOLT-4
- test: NCI tumour cell line growth inhibition, 48 h
Active and inactive are the calls of the source. Cut-off read from the data, not from the text of the source: active = GI50 up to about 1.1 µM and inactive = higher.
Outcomes: active, inactive

compound: COC[C@@H]1[C@H]2OC(C)(C)O[C@H]2C(=O)N1C(=O)c1ccc(OC)cc1
class_label: inactive
//
compound: COc1ccc(Br)c2c1CC(C(=O)O)CC2 (stereo not drawn)
class_label: inactive
//
compound: CCOC(=O)N/N=C(\Cc1ccccc1)OCC
class_label: inactive
//
compound: O=C(Cc1ccccc1)c1ccc2[nH]c(=O)oc2c1
class_label: inactive
//
compound: O=C1C=CC[C@H](/C=C/C[C@@H](O)C[C@H](O)/C=C/c2ccccc2)O1
class_label: inactive
//
compound: CCC[N+](C)(C)CCCNC(=O)c1c(O)c2ccccc2[nH]c1=O
class_label: inactive
//
compound: O=C(c1ccccc1)c1c(-c2ccccc2)n(-c2ccccc2)[nH]c(=O)c1=O
class_label: inactive
//
compound: CCCC1(CC(=O)O)OCCc2c1[nH]c1ccccc21 (stereo not drawn)
class_label: inactive
//
compound: Cc1cccc(/C=N/C23CC4CC(CC(C4)C2)C3)c1
class_label: inactive
//
compound: O=c1[nH]c(-c2ccc([N+](=O)[O-])cc2)nc2ccc(Cl)cc12
class_label: inactive
//
compound: CCN1C(=O)N2C(OC)c3ccccc3C(Br)C2(OC)C1=O (stereo not drawn)
class_label: inactive
//
compound: N#Cc1cnc(-n2[nH]c3c(c2=O)CCCC3)[nH]c1=O
class_label: inactive
//
compound: O=[N+]([O-])c1ccc(-c2ccc(-c3csc(Nc4ccccn4)n3)o2)cc1
class_label: inactive
//
compound: Cc1cc(O)cc(O)c1/N=N/c1ccc([N+](=O)[O-])cc1
class_label: inactive
//
compound: O=P(O)(Cc1ccccc1)c1ccccc1-c1ccccc1
class_label: inactive
//
compound: O=C1c2scnc2-c2nccc3c2c1nc1ccccc13
class_label: active
//
compound: CN1CCCC2[C@@H]3CCC4c5nonc5CC[C@]4(C)C3CC[C@@]21C (stereo partly drawn)
class_label: inactive
//
compound: CC(C)=CC1CC(=[N+]=[N-])C(=O)C1(C)C (stereo not drawn)
class_label: inactive

* * *

- Tested on: SR
- test: NCI tumour cell line growth inhibition, 48 h
Calls of active or inactive are those of the source. Cut-off read from the data, not from the text of the source: active = GI50 up to about 1.1 µM and inactive = higher.
Outcomes: Y = active, N = inactive

compound: O=C1c2ccccc2C(=O)c2c1oc1cc(O)c(Cl)cc21
class_label: N
//
compound: CCN(CC)C(=S)SNCCc1ccc(S(N)(=O)=O)cc1
class_label: Y
//
compound: Cc1ccc(NC(=O)CC(=O)n2nc(C)c(/N=N/c3cccc(C)c3)c2C)cc1
class_label: N
//
compound: [O-]c1c2c(nn1-c1ccc(F)cc1)c1ccccc1c[n+]2Cc1ccccc1
class_label: N
//
compound: CN1CCOC1(C)CO (configuration not stated)
class_label: N
//
compound: Cc1ccc([N+](=O)[O-])cc1S(=O)(=O)Nc1ccc(C2=NOC(c3ccccc3)C2)cc1 (configuration not stated)
class_label: N
//
compound: C/C(=N\NC(=O)C(N)=O)c1c(O)cc(C)oc1=O
class_label: N
//
compound: CC1CN1C(=O)NCCCCCCNC(=O)N1CC1C (configuration not stated)
class_label: N
//
compound: COc1ccc(N/N=C/C2=CC(C)(C)C(C#N)(C#N)C(O)=C2C#N)cc1
class_label: N
//
compound: CCCCCCCCCCCOC(=S)NC(C)C
class_label: N
//
compound: C[C@@H]1CCC([C@@H](C)[C@H]2CC[C@H]3[C@@H]4CC[C@H]5C[C@@H](O)CC[C@]5(C)[C@H]4CC[C@]23C)=NC1
class_label: N
//
compound: CCN1C(=O)N2C(OC)c3ccccc3C(Br)C2(OC)C1=O (configuration not stated)
class_label: N
//
compound: COC1CC(C)(N)C(O)C(C)O1 (configuration not stated)
class_label: N
//
compound: CCCCNC(=NC#N)NCCCC
class_label: N
//
compound: O=C(O)c1cnc2cc(OCc3ccccc3)ccc2c1O
class_label: N
//
compound: O=S(=O)(SC1=NCCN1)c1cccc2ccccc12
class_label: N
//
compound: COc1ccc2c(c1)CC[C@@H]1[C@@H]2CC[C@]2(C)/C(=N/OCCN3CCCC3)CC[C@@H]12
class_label: N
//
compound: CC1(C)OC2C(CO)OC(N/C(=N/C#N)Oc3ccccc3)C2O1 (configuration not stated)
class_label: N
//
compound: CCOC(=O)c1c(SC(=O)c2cc(OC)c(OC)c(OC)c2)n(-c2ccccc2)c(=S)n(-c2ccccc2)c1=O
class_label: N
//
compound: O=C1NN=C(O)C2C3c4ccccc4C(c4ccccc43)C12 (configuration not stated)
class_label: N
//
compound: COC(=O)N/N=C(/c1nc2ccc([N+](=O)[O-])cc2nc1O)C(O)c1ccc(OC)c(OC)c1 (configuration not stated)
class_label: N
//
compound: COc1ccc(C2CC(C)=Nc3c(O)nc(S)nc3N2)cc1 (configuration not stated)
class_label: N

* * *

- Test system: K562
- test: NCI tumour cell line growth inhibition, 48 h
Activity calls are given as the source filed them. No stated cut-off is given here; in the data, active = GI50 up to about 1.1 µM and inactive = higher. Where a SMILES comes first, the peptide text is derived from it. The star is where a group is joined. Boc = CC(C)(C)OC(=O)*
Outcomes: label 1 (active), label 0 (inactive)

compound: COc1ccc(C2Oc3ccc(O)cc3[C@@H]2C)cc1OC (some centres not stated)
class_label: label 0
//
compound: CCN(CC)c1ccc(/C=C/c2ccnc3ccccc23)cc1
class_label: label 0
//
compound: COc1ccc2c(c1)C1OCCNC1CC2 (configuration not stated)
class_label: label 0
//
compound: OCC(O)C(O)C(C=NNc1ncnc2ccc(Br)cc12)=NNc1ncnc2ccc(Br)cc12 (configuration not stated)
class_label: label 0
//
compound: CCOC(=O)[C@@]12C[C@](/C=C/OC)(O[Si](C)(C)C)[C@@]13c1cc(OC)c(OC)cc1CCN3C(=O)C2=O
class_label: label 0
//
compound: COC(=O)C1=NN2c3ccccc3CN([C@@H](C)c3ccccc3)C(=O)[C@H]2[C@@H]1C
class_label: label 0
//
compound: COc1ccc(C2CC(C)=Nc3c(O)nc(S)nc3N2)cc1 (configuration not stated)
class_label: label 0
//
compound: CC1OC(CC(=O)O)Cc2c(O)c3c(c(O)c21)C(=O)C=C(C1=CC(=O)c2c(O)c4c(c(O)c2C1=O)CC(CC(=O)O)OC4C)C3=O (configuration not stated)
class_label: label 0
//
compound: O=C1/C(=C\c2ccccc2)c2ccccc2N1Cc1ccccc1
class_label: label 0
//
compound: CC(C)C1OC(=O)C=C1Sc1ccccc1 (configuration not stated)
class_label: label 0
//
compound: CC(=O)O[C@H]1CC[C@@]2(C)C(=CC[C@@H]3[C@@H]2CC[C@]2(C)c4c(C)n[nH]c4C[C@@H]32)C1
class_label: label 0
//
compound: Cc1ccc(-c2c(C#N)c(O)n(NS(=O)(=O)c3ccccc3)c(=O)c2C#N)cc1
class_label: label 0
//
compound: O=C1C=C(Nc2ccc(Cl)cc2C(=O)c2ccccc2)c2ccccc2C1=O
class_label: label 0
//
compound: C/C(CC(=O)Nc1cc(Cl)c(Cl)cc1Cl)=N\NC(N)=O
class_label: label 0
//
compound: C[O+]=C1C=CC(=C2SC(c3ccccc3)(c3ccccc3)c3ccccc32)C=C1.[O-][Cl+3]([O-])([O-])[O-]
class_label: label 0
//
compound: CO[C@H]1C=CO[C@@]2(C)Oc3c(C)c(O)c4c(O)c(c(CN5CCN(C)CC5)c(O)c4c3C2=O)NC(=O)/C(C)=C\C=C[C@H](C)[C@H](O)C(C)[C@@H](O)C(C)[C@H](OC(C)=O)[C@@H]1C (some centres not stated)
class_label: label 0
//
compound: CN(C)c1ccc(C=c2c3ccccc3n3c2c2ccccc2[n+]3C)cc1
class_label: label 1
//
compound: CN1CCC/C1=N\C#N
class_label: label 0
//
compound: Cc1cccc(/C=N/C23CC4CC(CC(C4)C2)C3)c1
class_label: label 0
//
compound: O=C1CC2CC=C[C@H]3c4cc5c(cc4C(=O)N1C23)OCO5 (some centres not stated)
class_label: label 0
//
compound: [O-]c1c2c(nn1-c1ccc(F)cc1)c1ccccc1c[n+]2Cc1ccccc1
class_label: label 1
//
compound: Cc1nn(-c2nc3ccccc3s2)c2c1C(=O)c1ccccc1-2
class_label: label 0
//
compound: CCOC(=O)/C=C(\C)Sc1cc(O)c2ccccc2c1O
class_label: label 0
//
compound: CN(O)C(=O)c1ccc(OCc2cccc(Cl)c2)cc1
class_label: label 0
//
compound: Cc1cc(N(CCC#N)CCC#N)ccc1/C=C1\SC(=S)NC1=O
class_label: label 0
//
compound: COc1cc2c3c(cc(Cl)nc3c1OC)C(=O)C(=O)N2
class_label: label 0
//
compound: C[C@@H]1CCC([C@@H](C)[C@H]2CC[C@H]3[C@@H]4CC[C@H]5C[C@@H](O)CC[C@]5(C)[C@H]4CC[C@]23C)=NC1
class_label: label 0
//
compound: CC(=O)Oc1c(OC(C)C)cc(=O)n2ccsc12
class_label: label 0
//
compound: O=C(c1ccccc1)c1nnn(Cc2cccc(Cl)c2)c1C(=O)c1ccccc1
class_label: label 0
//
compound: CO[C@@H]1C[C@H]2[C@@H]3CC[C@H]([C@H](C)CO)[C@@]3(C)CC[C@@H]2[C@@]2(C)CC[C@H]3C[C@]312
class_label: label 0
//
compound: O=NN1C(c2ccccc2)C2CCCC(C2=O)C1c1ccccc1 (configuration not stated)
class_label: label 0
//
compound: CN(C)CCCNc1c2ccccc2nc2cccc([N+](=O)[O-])c12
class_label: label 1
//
compound: O=C1c2ccccc2C(=O)c2c(Nc3cc4c5c(ccc6c7ccc8c9c(cc(Nc%10cccc%11c%10C(=O)c%10ccccc%10C%11=O)c(c3c56)c97)-c3ccccc3C8=O)C(=O)c3ccccc3-4)cccc21
class_label: label 0
//
compound: COc1ccc2c(c1)CC[C@@H]1[C@@H]2CC[C@]2(C)/C(=N/OCCN3CCCC3)CC[C@@H]12
class_label: label 1
//
compound: CC(NC(=O)C1CCCN1C(=O)CNC(=O)OC(C)(C)C)C(=O)O (stereo not drawn) (Boc-Gly-Pro-Ala-OH; configuration not given here)
class_label: label 0
//
compound: CCOC(=O)CC[C@H](NC(=O)N[C@H](C)c1ccccc1)C(=O)OCC
class_label: label 0
//
compound: S=C(N1CCN(c2ccccc2)CC1)N1CCN(c2ccccc2)CC1
class_label: label 0
